Target: human ACVR2A (human, UniProt P27037 20-135, limits assumed); note: test concentration or dose not given here
Sequence (P27037 20-135 limits assumed): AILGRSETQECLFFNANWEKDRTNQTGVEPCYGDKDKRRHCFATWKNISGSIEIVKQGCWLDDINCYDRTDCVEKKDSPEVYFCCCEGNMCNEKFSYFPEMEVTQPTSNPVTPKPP
Assay: ELISA
OBSERVABLE: optical density (OD)
Numeric only. Scale: OD

{"columns": ["BINDER", "UNITS_LABEL", "optical density"],
 "data": [
  ["374_F01 (antibody, V domains shown, VH/VL only) VH: EVQLLESGGGLVQPGGSLRLSCAASGFTFDSYSMNWVRQAPGKGLEWVSNINYNGGYTGYADSVKGRFTISRDNSKNTLYLQMNSLRAEDTAVYYCARSANWHDTALDYWGQGTLVTVSS VL: DIQMTQSPSSLSASVGDRVTITCRASQSILSYVNWYQQKPGKAPKLVIYAATSRHSGVPSRFSGSGSGTDFTLTISSLQPEDFATYYCQQSYENPLTFGGGTKVEIK", "OD", 3.29],
  ["374_E05 (antibody, V domains shown, VH/VL only) VH: EVQLLESGGGLVQPGGSLRLSCAASGFTFSSYSMNWVRQAPGKGLEWVAGINYNGGYTSYADSVKGRFTISRDNSKNTLYLQMNSLRAEDTAVYYCARSANWHDTALDYWGQGTLVTVSS VL: DIQMTQSPSSLSASVGDRVTITCRASQSILSFVNWYQQKPGKAPKLVIYAATSRASGVPSRFSGSGSGTDFTLTISSLQPEDFATYYCQQSYNLPLTFGGGTKVEIK", "OD", 3.56]
]}

For the next question, use this binder.
What measured optical density goes with 368_C01 (antibody, V domains shown, VH/VL only) VH: EVQLLESGGGLVQPGGSLRLSCAASGFTFDSYGMNWVRQAPGKGLEWVAGINYNGGYTGYADSVKGRFTISRDNSKNTLYLQMNSLRAEDTAVYYCARSATWHDTALDYWGQGTLVTVSS VL: DIQMTQSPSSLSASVGDRVTITCRASQSIITYLNWYQQKPGKAPKLLIYAATSRASGVPSRFSGSGSGTDFTLTISSLQPEDFATYYCQQSYDSPLTFGGGTKVEIK ?
2.61

Value source: patent US20210380703A1
